Target: T1, biotinylated CD3 epsilon:delta heterodimer protein (Amsbio AMS.CDD-H52WO) (Homo sapiens (Human), UniProt P07766 23-126; P04234 22-105)
T1 construct: also called CD3 heterodimer
Assay: BLI (Octet), CD3 on SA sensor, Fab analyte;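 note: fabs dipped at several concentrations (0–300 nM) onto CD3-loaded streptavidin biosensors, 100 s association then 300 s dissociation in buffer, pH 7.4, sensors blocked with biocytin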

| binder | kon / M⁻¹ s⁻¹ |
| --- | --- |
| huSP34.11.7 Fab-HF (Fab, V domains shown, also called HC11+LC7) VH: EVQLVESGGGLVQPGGSLRLSCAASGFTFSTYAMNWVRQAPGKGLEWVGRIRSKYNNYATYYAASVKGRFTISRDDSKNSLYLQMNSLRTEDTAVYYCVRHGNFGHSYVSWFAYWGQGTLVTVSS VL: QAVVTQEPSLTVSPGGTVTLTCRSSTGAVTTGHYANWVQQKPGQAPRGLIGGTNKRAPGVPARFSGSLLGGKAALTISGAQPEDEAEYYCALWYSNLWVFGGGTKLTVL | 613000 |
| huSP34.13.7 Fab-HF (Fab, V domains shown, also called HC13+LC7) VH: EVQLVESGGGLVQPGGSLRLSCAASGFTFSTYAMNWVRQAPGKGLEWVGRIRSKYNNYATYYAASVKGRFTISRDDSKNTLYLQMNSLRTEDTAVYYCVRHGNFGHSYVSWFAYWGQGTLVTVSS VL: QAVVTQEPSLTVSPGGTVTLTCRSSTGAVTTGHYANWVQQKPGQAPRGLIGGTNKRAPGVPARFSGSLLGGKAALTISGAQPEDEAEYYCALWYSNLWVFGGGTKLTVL | 1.01e+06 |
| huSP34.11.10 Fab-HF (Fab, V domains shown, also called HC11+LC10) VH: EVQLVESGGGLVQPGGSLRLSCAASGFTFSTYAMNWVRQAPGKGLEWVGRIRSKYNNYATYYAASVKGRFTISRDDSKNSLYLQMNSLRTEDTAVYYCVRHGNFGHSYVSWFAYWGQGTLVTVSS VL: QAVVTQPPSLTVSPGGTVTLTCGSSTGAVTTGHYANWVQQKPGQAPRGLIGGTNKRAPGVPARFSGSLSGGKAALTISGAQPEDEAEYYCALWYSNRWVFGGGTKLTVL | 697000 |
| huSP34.3.8 Fab-HF (Fab, V domains shown, also called HC3+LC8) VH: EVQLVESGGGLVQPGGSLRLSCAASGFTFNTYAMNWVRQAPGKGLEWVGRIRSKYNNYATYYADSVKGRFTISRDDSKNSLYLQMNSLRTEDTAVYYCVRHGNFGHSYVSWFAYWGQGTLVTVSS VL: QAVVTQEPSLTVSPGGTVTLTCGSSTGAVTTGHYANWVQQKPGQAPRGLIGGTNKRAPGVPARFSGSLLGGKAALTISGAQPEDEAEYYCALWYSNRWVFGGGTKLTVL | 255000 |
